Target: JAK1 (Homo sapiens (Human))
Sequence (P23458 whole entry): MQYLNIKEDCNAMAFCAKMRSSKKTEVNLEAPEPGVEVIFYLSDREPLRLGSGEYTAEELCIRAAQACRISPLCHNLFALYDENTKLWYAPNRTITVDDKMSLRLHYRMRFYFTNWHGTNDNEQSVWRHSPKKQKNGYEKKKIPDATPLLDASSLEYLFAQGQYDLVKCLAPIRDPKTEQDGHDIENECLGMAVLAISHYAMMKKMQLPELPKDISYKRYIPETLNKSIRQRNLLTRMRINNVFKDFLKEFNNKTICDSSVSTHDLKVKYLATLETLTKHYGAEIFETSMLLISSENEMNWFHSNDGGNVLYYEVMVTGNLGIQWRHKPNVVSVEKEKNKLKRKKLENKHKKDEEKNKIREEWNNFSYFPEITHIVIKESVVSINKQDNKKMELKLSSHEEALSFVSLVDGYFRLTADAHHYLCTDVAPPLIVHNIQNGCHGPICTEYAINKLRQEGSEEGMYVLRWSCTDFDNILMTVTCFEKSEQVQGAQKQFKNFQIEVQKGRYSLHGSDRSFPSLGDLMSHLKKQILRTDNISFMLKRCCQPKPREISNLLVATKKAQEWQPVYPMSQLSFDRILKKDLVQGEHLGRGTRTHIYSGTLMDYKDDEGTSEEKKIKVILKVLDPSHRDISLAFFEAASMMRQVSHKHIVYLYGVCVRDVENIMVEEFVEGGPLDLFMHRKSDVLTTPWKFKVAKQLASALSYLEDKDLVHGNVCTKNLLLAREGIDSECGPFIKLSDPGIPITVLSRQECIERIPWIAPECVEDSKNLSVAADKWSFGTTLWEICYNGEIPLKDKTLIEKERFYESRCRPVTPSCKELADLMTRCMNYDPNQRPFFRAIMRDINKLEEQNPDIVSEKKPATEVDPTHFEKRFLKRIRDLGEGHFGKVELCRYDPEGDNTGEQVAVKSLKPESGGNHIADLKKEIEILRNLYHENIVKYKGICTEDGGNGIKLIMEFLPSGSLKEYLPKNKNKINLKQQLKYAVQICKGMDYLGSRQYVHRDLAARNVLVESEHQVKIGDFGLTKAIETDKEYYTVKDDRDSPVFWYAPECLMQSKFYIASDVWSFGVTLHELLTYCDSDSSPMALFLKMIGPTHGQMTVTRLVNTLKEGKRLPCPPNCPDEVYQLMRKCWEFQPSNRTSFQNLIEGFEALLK
Experiment: Z′-Lyte kinase inhibitory activity test
Format: biochemical
Conditions: ATP concentration Km
IC50 reference

structureSmilesString	IC50 (nM)
C=CC(=O)Nc1cc(Nc2ncc(Cl)c(O[C@@H]3CO[C@H]4[C@@H]3OC[C@H]4O)n2)ccc1N1CCC(N(C)C)CC1	1040
C=CC(=O)Nc1cc(Nc2ncc(Cl)c(O[C@@H]3CO[C@H]4[C@@H]3OC[C@H]4F)n2)ccc1N1CCN(CC)CC1	15600
CN(C)C/C=C/C(=O)Nc1cc(Nc2ncc(Cl)c(O[C@@H]3CO[C@H]4[C@@H]3OC[C@H]4O)n2)ccc1N1CCC(N2CCN(C)CC2)CC1	4880
C=CC(=O)Nc1cc(Nc2ncc(Cl)c(O[C@@H]3CO[C@H]4[C@@H]3OC[C@H]4OC)n2)ccc1N1CCC(N2CCN(C)CC2)CC1	533
C=CC(=O)Nc1cc(Nc2ncc(Cl)c(O[C@@H]3CO[C@H]4[C@@H]3OCC4(F)F)n2)ccc1N(C)CCN(C)C	4220
COc1cc(Nc2ncc(Cl)c(O[C@@H]3CO[C@H]4[C@@H]3OC[C@H]4O)n2)ccc1N1CCC(N2CCN(C)CC2)CC1	618
